target_entity: T1, human ROR1 (Receptor Tyrosine Kinase-Like Orphan Receptor 1) on the cell surface (human, UniProt Q01973 30-937)
T1 construct: whole, on cells; engineered into B16-F10 (high density) and LS174T (low density) cells; also called B16-F10-ROR1-H; LS174T-ROR1-L
assay_comment: flow cytometry, LS174T cells expressing human ROR1 (low density)
Procedure: As shown in the tables below, mouse B16-F10 melanoma (Tables 9A-9F) or LS174T human colorectal adenocarcinoma (Tables 9G-9H) cells genetically engineered to express human ROR1 at high and low densities, respectively, were stained for flow cytometric analysis with 100 nM of humanized variants of the ROR1 specific VHHs, 5A1 or 2A11 in either a VHH-Fc format or the Ac13 format shown in FIG. 1. […]
Assignment: determine reported MFI for the given binders.

Identify the reported MFI for the following entry. F221581013 (h5A1-BI-013 Fc) (Fc fusion, VHH-Fc format; also called F22158113; not shown: Fc of the VHH-Fc format) EVQLLESGGGLVQPGGSLRLSCAASGYTNRLKCMGWFRQAPGKEREEVASISTGTGNTYYADSVKGRFTISQDKSKNTLYLQMNSLKAEDTAVYYCAADVRPFGTTCHYNKRGQGTLVTVSS
23800

For FUSE-179 (5A1 VHH-human-Fc fusion protein) (Fc fusion, VHH-human-Fc fusion; non-humanized 5A1; not shown: human Fc) QVQLQESGGGSVQAGGSLKLSCTASGYTNRLKCMGWFRQAPGKEREEIATISTGTGNTYYADSVKGRFTFSQDKVKNTVYLQMNTLKPDDTGMYYCAADVRPDGTTCHYNSGGQGTQVTVSS , write its MFI.
3060

Determine its reported MFI: F221581018 (h5A1-BI-018 Fc) (Fc fusion, VHH-Fc format; also called F22158118; not shown: Fc of the VHH-Fc format) EVQLLESGGGLVQPGGSLRLSCAASGYTNRLKCMGWFRQAPGKEREEVASISTGTGNAYYADSVKGRFTISQDKSKNTLYLQMNSLKAEDTAVYYCAADVRPHGRTCHYNSRGQGTLVTVSS
17500

Annotate the binder F221581016 (h5A1-BI-016 Fc) (Fc fusion, VHH-Fc format; also called F22158116; not shown: Fc of the VHH-Fc format) EVQLLESGGGLVQPGGSLRLSCAASGYTNRLKCMGWFRQAPGKEREEVASISTGTGNAYYADSVKGRFTISQDKSKNTLYLQMNSLKAEDTAVYYCAADVRPHGTTCHYNSRGQGTLVTVSS with its measured MFI.
15000
